# test_name: PET hydrolysis, aromatic products released after 48 h (umol product/mg enzyme); higher = more PET depolymerization activity
# condition_parameters: substrate: cryPow; 60 °C; pH 6.5
reported_endpoint: PET hydrolysis

PET hydrolysis in this record for ANPYERGPNPTQALLEARSGPFSVSSERAWRLGSDGFGGGTIYYPRENNTYGAVAISPGYTGTQASVAWLGERIASHGFVVITIDTNTTLDQPDSRADQLEAALDHMVDGASSTVRSRIDRNRLAVMGHSMGGGGTLRLASQRPDLKAAIPLTPWHLNKSWSNVQVPTLIIGADLDTIAPVLTHAEPFYNSIPTSTRKAYLELDGATHFAPNITNSTIGMYSVAWLKRFVDEDTRYTQFLCPGPRTGLFSDVEEYRSTCPF [TEP014] : < 3

Lab note: measured PET hydrolysis of EEPASGYQRGPAPTTSSIESSRGPFSTSQVSISGLSANGFGGADVYYPTDTSQGTFGAVAISPGYTARKSSMAWLASRLASQGFVVINIDTNTTSDQPASRGRQLLAALDQVTKDSRVANRIDPTRLAVVGHSMGGGGALEASRSRPSLQAAIPLTPWNTTKSFSGNQVPTLVVGAERDTVASVRSHAEPFYRSLPSAPGKAYLELAGASHFAPNTSNTTIAKHSIAWLKLFVDNDERYRQFVCPGPTSDRAVSDYQNTCSSFTP [DP053] was < 3

# PET hydrolysis (sequence: ATPARPASVAAAPAAVQRAADNPYQRGPAPTEASITAEKGPFAVETIPVPAGSGTGFNKGTVYAPTDTSEGTFGAIVVSPGFVSPEAWISWYGPRLASQGFVVMTLETNSLVDVPASRGDQLLAALDWLTGKSSVKNRIDASRTAVMGHSMGGGGTLEAANKRPSLKADIPLAPWDTNYNFPNIKTPTLIMGADNDLIAPASSMAESYYNNITTAPEKAYLLLKNAGHMTFVSPNTTIAKYSIAWMKRFVDNDTRYDQFLCPAPKPDANIAKYLDTCPNG [DP016] ) is 10

###

# test_name: PET hydrolysis, aromatic products released after 48 h (umol product/mg enzyme); higher = more PET depolymerization activity
# condition_parameters: substrate: aFilm; 60 °C; pH 7.5
For each entry below, report its PET hydrolysis value.

Input LTPSPTPPPTGGTGGCPADAICRGETPGSYSANGPYGSRSYTLSRIQTPGGATVYYPANAEPPFSGLVFTPPYTGSQFMYRAWGPFFASHGIVMVTMDTRTTLDSVDQRAAQQKQVLDALKAENTRSASPLRGKLDTSRLGAVGWSMGGGATWINSAEYSGLKTAMSLAGHNLSALDINARGSNTRVPTLIMNGALDATYLGGLGQSLGVYNNIPRGIPKVIYEVSSAGHFSWGSPTSAGRSVAQIALAFQKTFLDGDTRWATYIRRPSSGVATWRTANLP [ESM175] . Output PET hydrolysis: < 3

Record AGFERGPDPSTSTLDAARGPFAVAEERVYSWRASGFGGGDIYYPTTTSEGTFGVVAVAPGYTAGRSSMAWLASRIASHGFVVINIDTLTRSDQPASRGRQLLAALDHVTSSSGVRDRVDASRQAVVGHSMGGGGALEAASSRPALQAAVPLTPWNLTKRWSSLQVPTFIVGAENDSVASVRTHAEPFYESLPAALPKAYLELNNASHFAPNTTNSTIGRYTVAWLKRYVDDDLRYSQFLCPPPPPSSAIEEFRATC [DP087] . Reported PET hydrolysis: < 3

For reference, reported PET hydrolysis for ADNPYQRGPDPTVASVAATNGPFATAQLNVPSGNGFNGGTIYYPTDTSLGTWGAVAIVPGYTARFANEEAWMGPRLASFGFVVIGVETNSTTDWDTARGTQLLAALDYLTQKSSVRDRVDASRLAVIGHSMGGGGVVYAASQRPSLKAAIGLAPYAPSGNLSNVKVPMLIQGGQNDTVVTPSYLDGLYPTLPSSTPGAYVQYSGADHLFWTKANNIELRTQIPWLKIFLDNDTRYTQFMCPTLKDTASVAKYSAKCSLIPSAGSTTAPTTQPATSAPATTSPTTQPPSQPG [TEP083] stands at < 3

The sequence listed as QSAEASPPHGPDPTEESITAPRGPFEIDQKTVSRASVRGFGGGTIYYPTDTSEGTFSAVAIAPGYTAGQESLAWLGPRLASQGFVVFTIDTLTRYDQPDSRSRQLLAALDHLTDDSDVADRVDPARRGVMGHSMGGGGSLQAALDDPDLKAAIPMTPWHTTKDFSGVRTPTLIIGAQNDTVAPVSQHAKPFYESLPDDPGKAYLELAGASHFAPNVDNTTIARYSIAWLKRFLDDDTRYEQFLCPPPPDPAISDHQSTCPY [TEP105] has a reported PET hydrolysis of 10

The sequence listed as ADNPYQRGPDPTPASVGASRGTFATAQVSVPAGNGFGGGVIYYPTDTSQGRFGAVAVVPGYTATWAAEGAWMGPWLASFGFVVIGIDTNSRNDWDTARGTQLLAALDYLTQRSSVRDRVDASRAAVMGHSMGGGGAIYAALQRPSLKTTVGLAPFSASQTLNNMRVPTMLLAGQNDGTTTPASIRNYYGQVPSGVEKAYLELTGAGHGFPTSNNPTMMRNVIPWLKIFVDSDTRYTQFLCPLSNTNGIRSYESTCPLVPSPVPTDPPTSAPPTSTPPTTPPPTTPPPTTPAPGGPCAASYRTVNSWSGGFQGEVTVRAGGAPINGWTVRWTLGGGQSISQVWNGTLSTSGSTATVRNAPYNGSLPASGSTTFGFIANGSPSAPTLTCASP [TEP013] shows PET hydrolysis equal to < 3
